Reference source for all entries: ChEMBL document CHEMBL4513216

# assayOverview: Toxicity liver stage against HepG2, at 10uM
# Type: cell-based
# Parameters: test concentration 10 uM, cell line HepG2-A16-CD81EGFP
# runConditions: human, HepG2-A16-CD81EGFP cells; read-out: INHIBITION
One threshold, -10%, splits the recorded cytotoxicity at 10 µM values: lower ones are t, equal or higher ones are f.

INSERT INTO results (compound, labelclass) VALUES
  ('Cc1c(C[S+](C)[O-])cccc1NC(=O)c1cc(Cl)ccn1 (configuration not stated)', 'f'),
  ('CNC(=O)c1cc(C)n(-c2cccc(OC)c2)c1C', 't'),
  ('CCCN(C(=O)c1ocnc1C)C1CCCN(Cc2ccccc2)C1 (configuration not stated)', 'f'),
  ('CC(C)n1cnnc1C1CCCN(S(=O)(=O)CC2CCCC2)C1 (configuration not stated)', 't'),
  ('Cc1ccc(-n2cc(C)cn2)c(NC(=O)NC2(C)CCOC2)c1 (configuration not stated)', 't'),
  ('Cc1noc(C)c1CN(C)Cc1cnc(N2CCOCC2)nc1', 'f'),
  ('O=C([C@@H]1CCCO1)N1CCOCC2(CCN(Cc3cccnc3)C2)C1 (some centres not stated)', 't'),
  ('CCN(C)C(=O)NCC1(CN2CCOCC2)CCCCC1', 'f'),
  ('CS(=O)(=O)CCCN(CCCO)C1CCc2ccccc21 (configuration not stated)', 't'),
  ('O=C1CC2(CCN(CC3CC3)CC2)CN1Cc1cc(F)cc(F)c1', 'f'),
  ('C[C@@H]1CN(C2CCN(Cc3cnc(-c4cccs4)nc3)CC2)C[C@H](C)O1', 't'),
  ('CCc1nc(CN(C)CC(=O)NC(C)C)cs1', 'f');
